# key: entry, value: Kd
# target system: T1, cynomolgus monkey glypican-3 (GPC3) (cynomolgus monkey, UniProt A5A6P7 25-554 (Pan troglodytes entry))
# T1 construct: Transiently expressed on CHO-S cells; also called cynoGPC3; CynoGPC3-CHO
# method notes: flow cytometry on CHO-S cells transfected with cynomolgus GPC3;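 note: antibodies incubated 24 h at 4 °C with transiently transfected cells, binding read as AF647 geometric mean fluorescence of live cells, GFP-transfected cells as negative control, Hill-slope specific-binding fit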

{"binder": "H18L6_LC_G34R mAb, v40206 (antibody, human IgG1, kappa, V domains shown, Full-size IgG1/kappa) VH: QVQLVQSGAEVKKPGSSVKVSCKASGYTFTDYEMHWVKQAPGHGLEWIGAIDPETGDTAYNQKFKGKATLTADTSTSTAYMELSSLRSEDTAVYYCTRYFSFAYWGQGTLVTVSS VL: EIVLTQSPATLSLSPGERATISCRSSQSLRHSNRNTYLQWYQQKPGQAPRLLIYKVSNRFSGVPARFSGSGSGTDFTLTISSLEPEDFAVYFCYQSKHVPYTFGGGTKVEIKR", "unit label": "nM", "Kd": 0.13}
{"binder": "H18L6_LC_G34K mAb, v40207 (antibody, human IgG1, kappa, V domains shown, Full-size IgG1/kappa) VH: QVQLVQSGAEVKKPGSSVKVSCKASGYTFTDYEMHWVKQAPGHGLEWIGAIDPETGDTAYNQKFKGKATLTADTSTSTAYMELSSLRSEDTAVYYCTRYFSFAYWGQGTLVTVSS VL: EIVLTQSPATLSLSPGERATISCRSSQSLRHSNKNTYLQWYQQKPGQAPRLLIYKVSNRFSGVPARFSGSGSGTDFTLTISSLEPEDFAVYFCYQSKHVPYTFGGGTKVEIKR", "unit label": "nM", "Kd": 0.16}
{"binder": "H18L6_LC_G34V mAb, v40211 (antibody, human IgG1, kappa, V domains shown, M3-H18L6 chains with the stated light chain point mutation, IgG1/kappa) VH: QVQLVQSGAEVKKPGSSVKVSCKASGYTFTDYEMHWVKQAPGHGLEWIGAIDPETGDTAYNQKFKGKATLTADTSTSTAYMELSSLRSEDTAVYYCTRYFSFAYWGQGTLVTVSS VL: EIVLTQSPATLSLSPGERATISCRSSQSLRHSNVNTYLQWYQQKPGQAPRLLIYKVSNRFSGVPARFSGSGSGTDFTLTISSLEPEDFAVYFCYQSKHVPYTFGGGTKVEIKR", "unit label": "nM", "Kd": 0.17}
{"binder": "codrituzumab (v37575) (antibody, human IgG1, kappa, V domains shown, also called GC33; RG-7686) VH: QVQLVQSGAEVKKPGASVKVSCKASGYTFTDYEMHWVRQAPGQGLEWMGALDPKTGDTAYSQKFKGRVTLTADKSTSTAYMELSSLTSEDTAVYYCTRFYSYTYWGQGTLVTVSS VL: DVVMTQSPLSLPVTPGEPASISCRSSQSLVHSNRNTYLHWYLQKPGQSPQLLIYKVSNRFSGVPDRFSGSGSGTDFTLKISRVEAEDVGVYYCSQNTHVPPTFGQGTKLEIKR", "unit label": "nM", "Kd": 0.09}
{"binder": "H18L6_LC_G34S mAb, v40210 (antibody, human IgG1, kappa, V domains shown, M3-H18L6 chains with the stated light chain point mutation, IgG1/kappa) VH: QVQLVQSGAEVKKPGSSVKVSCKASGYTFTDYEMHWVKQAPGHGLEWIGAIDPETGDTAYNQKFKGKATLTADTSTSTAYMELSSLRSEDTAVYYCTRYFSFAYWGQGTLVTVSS VL: EIVLTQSPATLSLSPGERATISCRSSQSLRHSNSNTYLQWYQQKPGQAPRLLIYKVSNRFSGVPARFSGSGSGTDFTLTISSLEPEDFAVYFCYQSKHVPYTFGGGTKVEIKR", "unit label": "nM", "Kd": 0.09}
